FYI, the data here is from PubChem BioAssay AID248.

# System: L1210 leukemia ip in BDF1 mice, survival T/C
# procedureText: NCI In Vivo Anticancer Drug Screen. Data for tumor model L1210 Leukemia (intraperitoneal) in B6D2F1 (BDF1) mice
# experimentalParameters: endpoint: mean survival time; dose: 200.0 mg/kg/injection; schedule: Q04DX003 (ip); vehicle: saline; higher = longer survival
Inconclusive results and toxic doses are left out. Square brackets hold non-standard residues; d marks the D form. Peptide text beside a SMILES is read from it. ξ: configuration not given here. ξV = CC(C)C(N)C(=O)O

[
  {
    "compound": "COC(=O)C1OC1c1cc(OC)ccc1OC (centres undefined)",
    "T/C": "100 % of control"
  },
  {
    "compound": "CSCS(C)=O (centres undefined)",
    "T/C": "103 % of control"
  },
  {
    "compound": "Nc1ccc2ccc(O)cc2c1",
    "T/C": "121 % of control"
  },
  {
    "compound": "NN1CC(=O)NC1=O",
    "T/C": "102 % of control"
  },
  {
    "compound": "CC(C)(C)C=O",
    "T/C": "96 % of control"
  },
  {
    "compound": "Cc1cc(/C=C\\c2ccccc2Cl)nc2cc(Cl)ccc12",
    "T/C": "98 % of control"
  },
  {
    "compound": "COc1ccc(Cl)cc1NC(=O)Nc1c(C)n(C)n(-c2ccccc2)c1=O",
    "T/C": "101 % of control"
  },
  {
    "compound": "CC(C)C(NC(=O)CN)C(=O)O (centres undefined) (H-Gly-[ξV]-OH)",
    "T/C": "124 % of control"
  },
  {
    "compound": "CCOC(=O)CCC(NC(=O)c1cc([N+](=O)[O-])cc([N+](=O)[O-])c1)C(=O)OCC (centres undefined)",
    "T/C": "97 % of control"
  },
  {
    "compound": "C[S+](C)CC(=O)c1ccccc1",
    "T/C": "104 % of control"
  },
  {
    "compound": "CSCCNC(=O)NS(=O)(=O)c1ccc(Cl)cc1",
    "T/C": "97 % of control"
  },
  {
    "compound": "CCOC(=O)CC(C(=O)OCC)C(OCC)OCC (centres undefined)",
    "T/C": "106 % of control"
  },
  {
    "compound": "O=C(CSc1ccccc1)NCc1cnccn1",
    "T/C": "105 % of control"
  },
  {
    "compound": "CCCCOCCOCCOCCO",
    "T/C": "98 % of control"
  }
]

###

# Test system: L1210 leukemia ip in BDF1 mice, survival T/C
# procedureText: NCI In Vivo Anticancer Drug Screen. Data for tumor model L1210 Leukemia (intraperitoneal) in B6D2F1 (BDF1) mice
# experimentalParameters: endpoint: mean survival time; dose: 75.0 mg/kg/injection; schedule: Q01DX001 (ip); vehicle: other; higher = longer survival
Toxic doses and inconclusive results are not listed.
Entries and their measured T/C follow.

[
  {
    "compound": "C=CCC(C)/C(C)=C(/C#N)C(=O)OCC (centres undefined)",
    "T/C": "107 % of control"
  },
  {
    "compound": "CC(C)CC(CC(C)C)NCCOC(=O)Cc1ccccc1",
    "T/C": "93 % of control"
  },
  {
    "compound": "CC(C)(C)C(=O)CC(=O)C(C)(C)C.CC(C)(C)C(=O)CC(=O)C(C)(C)C.[Cu]",
    "T/C": "103 % of control"
  },
  {
    "compound": "CC(=O)OC1=C(Cl)C(=O)c2ccccc2C1=O",
    "T/C": "89 % of control"
  }
]

###

# Tested on: L1210 leukemia ip in BDF1 mice, survival T/C
# procedureText: NCI In Vivo Anticancer Drug Screen. Data for tumor model L1210 Leukemia (intraperitoneal) in B6D2F1 (BDF1) mice
# experimentalParameters: endpoint: mean survival time; dose: 200.0 mg/kg/injection; schedule: Q01DX009 (ip); vehicle: Klucel (hydroxypropylcellulose) (HPC); higher = longer survival
Inconclusive results and toxic doses are left out.
Entries and their measured T/C follow.
observedProperty: T/C

[
  {
    "compound": "CC(=O)C1CCCC23CC(CC12)C(C)(C)C3OC=O (stereo unspecified)",
    "systemUnderTest": "L1210 leukemia ip in BDF1 mice, survival T/C",
    "result": "100 % of control"
  },
  {
    "compound": "Cc1ccc(S(=O)(=O)N(C)CCC#N)cc1",
    "systemUnderTest": "L1210 leukemia ip in BDF1 mice, survival T/C",
    "result": "96 % of control"
  },
  {
    "compound": "Nc1cc(Cl)c(Cl)cc1S(=O)(=O)O",
    "systemUnderTest": "L1210 leukemia ip in BDF1 mice, survival T/C",
    "result": "98 % of control"
  },
  {
    "compound": "Cc1cccc(Cl)c1NC(=O)Nc1ccc(S(N)(=O)=O)cc1",
    "systemUnderTest": "L1210 leukemia ip in BDF1 mice, survival T/C",
    "result": "102 % of control"
  },
  {
    "compound": "O=C(Nc1ccc(Cl)cc1[N+](=O)[O-])N1CCN(c2ccccc2)CC1",
    "systemUnderTest": "L1210 leukemia ip in BDF1 mice, survival T/C",
    "result": "96 % of control"
  },
  {
    "compound": "O=[N+]([O-])c1cc(S(=O)(=O)c2ccc(Cl)c([N+](=O)[O-])c2)ccc1Cl",
    "systemUnderTest": "L1210 leukemia ip in BDF1 mice, survival T/C",
    "result": "92 % of control"
  }
]

###

# Tested on: L1210 leukemia ip in BDF1 mice, survival T/C
# procedureText: NCI In Vivo Anticancer Drug Screen. Data for tumor model L1210 Leukemia (intraperitoneal) in B6D2F1 (BDF1) mice
# experimentalParameters: endpoint: mean survival time; dose: 200.0 mg/kg/injection; schedule: Q01DX001 (ip); vehicle: Klucel (hydroxypropylcellulose) (HPC); higher = longer survival
Toxic doses and inconclusive results are not listed.
Entries and their measured T/C follow.

[
  {
    "compound": "CC(=O)Nc1nc(-c2ccccc2)c(CCC=O)c(=O)[nH]1",
    "T/C": "104 % of control"
  },
  {
    "compound": "CC1(C)CCCC2(C)C(O)C3CCC2C31 (configuration not stated)",
    "T/C": "91 % of control"
  },
  {
    "compound": "COc1ccc(-n2c(=O)c(N=Nc3ccc(Cl)cc3)c(O)n(-c3ccccc3Cl)c2=S)cc1",
    "T/C": "95 % of control"
  },
  {
    "compound": "CC1(C(Cl)Cl)C=CC=CC1=O (configuration not stated)",
    "T/C": "106 % of control"
  },
  {
    "compound": "Clc1ccc(NC(Nc2ccc(Cl)cc2)C(Cl)(Cl)Cl)cc1",
    "T/C": "90 % of control"
  },
  {
    "compound": "CCOC(=O)c1[nH]c(C)c(/C(=N/NC(N)=O)C(=O)OC)c1C",
    "T/C": "110 % of control"
  },
  {
    "compound": "Nc1cc(O)c(CCCNC(=O)CBr)c(-c2ccccc2)c1",
    "T/C": "105 % of control"
  },
  {
    "compound": "COc1ccc([N+](=O)[O-])cc1NC(=O)NCc1cccnc1",
    "T/C": "93 % of control"
  },
  {
    "compound": "CCOC(=O)Nc1cc(Cl)ccc1C",
    "T/C": "102 % of control"
  },
  {
    "compound": "C=CNC(=O)C(c1ccccc1)N1CCCCC1 (configuration not stated)",
    "T/C": "97 % of control"
  },
  {
    "compound": "CCOC(=O)CCc1c(C(=O)OCC)[nH]c(C)c1C(=O)OC(C)(C)C",
    "T/C": "124 % of control"
  },
  {
    "compound": "CN1CN(c2ccccc2)C2(CCN(CC3Cc4cc(F)ccc4O3)CC2)C1=O (configuration not stated)",
    "T/C": "98 % of control"
  }
]

###

# System: L1210 leukemia ip in BDF1 mice, survival T/C
# procedureText: NCI In Vivo Anticancer Drug Screen. Data for tumor model L1210 Leukemia (intraperitoneal) in B6D2F1 (BDF1) mice
# experimentalParameters: endpoint: mean survival time; dose: 400.0 mg/kg/injection; schedule: Q01DX001 (ip); vehicle: saline; higher = longer survival
Toxic doses and inconclusive results are not listed.
Entries and their measured T/C follow.
observedProperty: T/C

[
  {
    "compound": "O=S(=O)(/C=C\\c1ccccc1)N1CCCc2ccccc21",
    "result": "101 % of control"
  },
  {
    "compound": "C=C1C(=O)O[C@@H]2C[C@@]3(C)CCC[C@H](C)C3=C[C@H]12",
    "result": "102 % of control"
  },
  {
    "compound": "CCCC/C=C/CCl",
    "result": "90 % of control"
  },
  {
    "compound": "NC(N)=NS(=O)(=O)c1ccc(C(N)=NC2CCCCC2)cc1",
    "result": "90 % of control"
  },
  {
    "compound": "NCCCCC(=O)NC(CCCCNC(=O)OCc1ccccc1)C(=O)NCCCCC(=O)NC(CCCCNC(=O)OCc1ccccc1)C(=O)NCCCCC(=O)NC(CCCCNC(=O)OCc1ccccc1)C(=O)NCCCCC(=O)NC(CCCCNC(=O)OCc1ccccc1)C(=O)NCCCCC(=O)NC(CCCCNC(=O)OCc1ccccc1)C(=O)NCCCCC(=O)NC(CCCCNC(=O)OCc1ccccc1)C(=O)NCCCCC(=O)NC(CCCCNC(=O)OCc1ccccc1)C(=O)O (stereo not given)",
    "result": "95 % of control"
  },
  {
    "compound": "NC(=O)N/N=C1\\CCCC(CCC(=O)O)C1 (stereo not given)",
    "result": "100 % of control"
  },
  {
    "compound": "COc1cccc(-c2ccc(N=N/C(=N/Nc3ccccc3)c3ccccc3)c(OC)c2)c1",
    "result": "89 % of control"
  },
  {
    "compound": "CC(C)(CS(C)(=O)=O)C(=O)O",
    "result": "101 % of control"
  },
  {
    "compound": "O=C(N/N=C/c1cc(Cl)ccc1[N+](=O)[O-])c1cccc2ccccc12",
    "result": "97 % of control"
  },
  {
    "compound": "O=C1CC(CC(=O)C2CCCC2=O)CC(=O)N1 (stereo not given)",
    "result": "108 % of control"
  },
  {
    "compound": "O=C(O)C(=O)O.[Co+3].[NH-]C(Cc1ccccc1)C(=O)[O-].[NH-]CCN(CC[NH-])CC[NH-] (stereo not given)",
    "result": "102 % of control"
  },
  {
    "compound": "O=c1[nH]c(=S)[nH]c(-c2ccccc2)c1Cc1ccccc1",
    "result": "94 % of control"
  },
  {
    "compound": "CC(=O)C1(C)C(=O)N(S(=O)(=O)c2ccc(C)cc2)C(=O)N1S(=O)(=O)c1ccc(C)cc1 (stereo not given)",
    "result": "100 % of control"
  },
  {
    "compound": "CCOC(=O)NN(C(=O)OCC)c1c(NNC(C)=O)nc(N)[nH]c1=O",
    "result": "99 % of control"
  },
  {
    "compound": "C=CCc1ccccc1C",
    "result": "101 % of control"
  },
  {
    "compound": "CC(=O)Nc1ncnc2c(C3OC(COC(C)=O)C(OC(C)=O)C3OC(C)=O)[nH]nc12 (stereo not given)",
    "result": "100 % of control"
  },
  {
    "compound": "Cn1c2nc(=O)[nH]c(=O)c-2cc2ccccc21",
    "result": "97 % of control"
  },
  {
    "compound": "CC(=O)/C=C\\c1ccc(Cl)cc1",
    "result": "106 % of control"
  },
  {
    "compound": "O=c1nc2n(CC(O)C(O)C(O)CO)c3ccccc3cc-2c(=O)[nH]1 (stereo not given)",
    "result": "93 % of control"
  },
  {
    "compound": "CCCCCCCCCCNC(=S)NNC(=O)CCCC(=O)NNC(=S)NCCCCCCCCCC",
    "result": "96 % of control"
  }
]
